experiment: Tissue concentration of aprepitant by HPLC after oral or inhaled administration to rabbits
Format: in vivo, New Zealand albino rabbits
test_conditions: New Zealand White, rabbit, lung, left superior lobe, inhaled, 0.4 mg/kg/day, Lung concentration of aprepitant LSPI, Average ± SD of cases, Group 8, inhalation (aerosol, olive oil) 0.4 mg/kg per day, seven days
test_readout: concentration at 7 days (ng/g)
One number for each entry, in ng/g.

Incoming: Requested read-out: concentration at 7 days. Entry: C[C@@H](OC1OCCN(Cc2nc(=O)[nH][nH]2)C1c1ccc(F)cc1)c1cc(C(F)(F)F)cc(C(F)(F)F)c1 (stereo in doubt) [Aprepitant]
Outgoing: 10000

---

experiment: in vivo
Type: in vivo, New Zealand albino rabbits
test_conditions: New Zealand White (albino), rabbit, in vivo, po, 100 mg/kg/day, Lung concentration of aprepitant, Average ± SD of the five lobes per case
From the text: Herein, New Zealand albino rabbits (New Zealand White Rabbits) with an initial average weight of approximately 3 kg were used. The rabbits were fed ad libitum and were monitored daily to check that signs of toxicity had not appeared. […] The average is the arithmetic average calculated for each row or column of each table. The SD is the standard deviation, calculated for each row or column of each table.
test_readout: concentration at 7 days

Incoming: Requested read-out: concentration at 7 days. Entry: C[C@@H](OC1OCCN(Cc2nc(=O)[nH][nH]2)C1c1ccc(F)cc1)c1cc(C(F)(F)F)cc(C(F)(F)F)c1 (stereo in doubt) [Aprepitant]
Outgoing: 5240 ng/g

---

experiment: in vivo
Format: in vivo, New Zealand albino rabbits
test_conditions: New Zealand White, rabbit, in vivo, 0.4 mg/kg/day, Lung concentration of aprepitant, Average ± SD of the five lobes per case
test_readout: concentration at 7 days (ng/g)
Give bare numbers, in ng/g.

Incoming: Requested read-out: concentration at 7 days. Entry: C[C@@H](OC1OCCN(Cc2nc(=O)[nH][nH]2)C1c1ccc(F)cc1)c1cc(C(F)(F)F)cc(C(F)(F)F)c1 (stereo in doubt) [Aprepitant]
Outgoing: 9900

---

experiment: Tissue concentration of aprepitant by HPLC after oral or inhaled administration to rabbits
Type: in vivo, New Zealand albino rabbits
test_conditions: New Zealand White, rabbit, lung, right superior lobe, inhaled, 0.4 mg/kg/day, Lung concentration of aprepitant LSPD, Average ± SD of cases, Group 8, inhalation (aerosol, olive oil) 0.4 mg/kg per day, seven days
test_readout: concentration at 7 days (ng/g)
Answers are plain numbers, in ng/g.

Incoming: Requested read-out: concentration at 7 days. Entry: C[C@@H](OC1OCCN(Cc2nc(=O)[nH][nH]2)C1c1ccc(F)cc1)c1cc(C(F)(F)F)cc(C(F)(F)F)c1 (stereo in doubt) [Aprepitant]
Outgoing: 9900

---

experiment: Tissue concentration of aprepitant by HPLC after oral or inhaled administration to rabbits
Type: in vivo, New Zealand albino rabbits
test_conditions: New Zealand White (albino), rabbit, lung, right inferior lobe, inhaled, 0.2 mg/kg/day, Lung concentration of aprepitant LIPD, Average ± SD of cases, Group 7, inhalation (aerosol, olive oil) 0.2 mg/kg per day, seven days
test_readout: concentration at 7 days (ng/g)
One number for each entry, in ng/g.

Incoming: Requested read-out: concentration at 7 days. Entry: C[C@@H](OC1OCCN(Cc2nc(=O)[nH][nH]2)C1c1ccc(F)cc1)c1cc(C(F)(F)F)cc(C(F)(F)F)c1 (stereo in doubt) [Aprepitant]
Outgoing: 6000

Data credit: patent US20170290774A1
